Origin of measurements: patent US20240018237A1

- Tested system: T1, human ROR1 (full-length, on the cell surface) (human, UniProt Q01973 30-937)
- T1 construct: whole, on cells; the tumour cell lines carry their own ROR1; also called Ba/F3-ROR1 cells; Jeko-1
- T1 sequence (Q01973 30-937): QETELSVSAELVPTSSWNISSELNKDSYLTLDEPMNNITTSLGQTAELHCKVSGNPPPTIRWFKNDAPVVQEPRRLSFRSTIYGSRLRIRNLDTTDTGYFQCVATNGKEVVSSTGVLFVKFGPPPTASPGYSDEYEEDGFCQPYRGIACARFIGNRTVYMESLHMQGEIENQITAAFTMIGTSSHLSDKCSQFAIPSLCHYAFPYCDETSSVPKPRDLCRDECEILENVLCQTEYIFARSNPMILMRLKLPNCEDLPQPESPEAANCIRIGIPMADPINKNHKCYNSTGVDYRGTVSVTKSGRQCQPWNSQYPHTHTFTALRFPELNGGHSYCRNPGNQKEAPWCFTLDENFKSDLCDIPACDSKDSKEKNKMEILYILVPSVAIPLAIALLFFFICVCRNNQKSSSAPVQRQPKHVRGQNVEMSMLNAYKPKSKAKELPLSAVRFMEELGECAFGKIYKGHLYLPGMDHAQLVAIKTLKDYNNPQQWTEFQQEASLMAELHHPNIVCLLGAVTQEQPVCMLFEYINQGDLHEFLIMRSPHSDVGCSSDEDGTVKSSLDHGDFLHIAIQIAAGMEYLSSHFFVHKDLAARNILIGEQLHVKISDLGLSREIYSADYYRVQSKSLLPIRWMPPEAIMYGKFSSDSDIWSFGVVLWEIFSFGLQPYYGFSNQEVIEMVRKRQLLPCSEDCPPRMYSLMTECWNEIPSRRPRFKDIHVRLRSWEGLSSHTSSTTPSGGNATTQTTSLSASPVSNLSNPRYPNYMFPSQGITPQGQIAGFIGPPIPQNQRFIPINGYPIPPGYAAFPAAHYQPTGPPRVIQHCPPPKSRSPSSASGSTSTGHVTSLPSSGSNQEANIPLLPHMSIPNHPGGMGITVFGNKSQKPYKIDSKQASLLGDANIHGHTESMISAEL
- Assay overview: flow cytometry, Ba/F3-ROR1 cells
What EC50 was measured for each of the following?
Quick note: give the figure in nM, leave out the unit.

(Q) What value of EC50 has been reported for the following binder? 3D8-HuC54 (antibody, human IgG1, kappa, V domains shown, humanized, human IgG1 / kappa) VH: EVQLVESGGGLVQPGGSLRLSCAASGFTFSSYAMSWVRQAPGKGLEWVSSINSGGSTYYPDSVKGRFTISRENAKNSLYLQMNSLRAGDTAVYYCARVNYYGYGDYAMDYWGQGTLVTVSS VL: DIQMTQSPSSLSASVGDRVTITCQASQDISNYLTWFQQKPGKSPKTLIHRANRLVTGVPSRFSGSGSGTDFTFTISSLQPEDIATYYCLQYDEFPYTFGGGTKVEIKR
(A) 0.23

(Q) And for 3D8-Hu27 (antibody, human IgG1, kappa, V domains shown, humanized, human IgG1 / kappa) VH: EVQLVESGGGLVQPGGSLRLSCAASGFTFSSYAMSWVRQAPGKGLEWVASINSGGSTYYPDSVKGRFTISRDNAKNSLYLQMNSLRAEDTAVYYCARVNYYGYGDYAMDYWGQGTLVTVSS VL: DIQMTQSPSSLSASVGDRVTITCQASQDISNYLSWFQQKPGKSPKTLIYRANRLVTGVPSRFSGSGSGTDYTFTISSLQPEDIATYYCLQYDEFPYTFGGGTKLEIKR ?
(A) 0.2

(Q) For 38F8-Hu28 (antibody, human IgG1, kappa, V domains shown, humanized, human IgG1 / kappa) VH: EVQLVESGGGLVQPGGSLRLSCAASGFTFSNYAMSWVRQAPGKGLEWVASISSGGPTYYPDSVKGRFTVSRDNSKNTLYLQMNSLRAEDTAVYYCARGYRYDVNWYFDVWGAGTMVTVSS VL: DIQMTQSPSSLSASVGDRVTITCQASQDINSYLTWFQQKPGKSPKTLIHRANRLVTGVPSRFSGSGSGTDYTFTISSLQPEDIAIYYCLQYDEFPYTFGGGTKVEIKR then?
(A) 1.32
